Each recorded value in this set is attributed to paper PMC4207562.

substrate: CC(C)C[C@@H](N)C(=O)O; experiment: purified protein; conditions: 50 mM potassium phosphate pH 8.0, 30 °C, air-saturated

{"protein": "TvDAAO (Trigonopsis variabilis) (protein, recombinant tvdaao gene in pET-33b(+) based plasmid, E. coli BL21(DE3) CodonPlus/pLysS; MonoQ purified; FAD homodimer; no tag stated) MAKIVVIGAGVAGLTTALQLLRKGHEVTIVSEFTPGDLSIGYTSPWAGANWLTFYDGGKLADYDAVSYPILRELARSSPEAGIRLISQRSHVLKRDLPKLEVAMSAICQRNPWFKNTVDSFEIIEDRSRIVHDDVAYLVEFRSVCIHTGVYLNWLMSQCLSLGATVVKRRVNHIKDANLLHSSGSRPDVIVNCSGLFARFLGGVEDKKMYPIRGQVVLVRNSLPFMASFSSTPEKENEDEALYIMTRFDGTSIIGGCFQPNNWSSEPDPSLTHRILSRALDRFPELTKDGPLDIVRECVGHRPGREGGPRVELEKIPGVGFVVHNYGAAGAGYQSSYGMADEAVSYVERALTRPNL", "kcat [s⁻¹]": 29.1}
{"protein": "TvDAAO (Trigonopsis variabilis; S67A) (protein, recombinant tvdaao gene in pET-33b(+) based plasmid, E. coli BL21(DE3) CodonPlus/pLysS; MonoQ purified; FAD homodimer; no tag stated) MAKIVVIGAGVAGLTTALQLLRKGHEVTIVSEFTPGDLSIGYTSPWAGANWLTFYDGGKLADYDAVAYPILRELARSSPEAGIRLISQRSHVLKRDLPKLEVAMSAICQRNPWFKNTVDSFEIIEDRSRIVHDDVAYLVEFRSVCIHTGVYLNWLMSQCLSLGATVVKRRVNHIKDANLLHSSGSRPDVIVNCSGLFARFLGGVEDKKMYPIRGQVVLVRNSLPFMASFSSTPEKENEDEALYIMTRFDGTSIIGGCFQPNNWSSEPDPSLTHRILSRALDRFPELTKDGPLDIVRECVGHRPGREGGPRVELEKIPGVGFVVHNYGAAGAGYQSSYGMADEAVSYVERALTRPNL", "kcat [s⁻¹]": 31.4}
{"protein": "TvDAAO (Trigonopsis variabilis; S277A) (protein) MAKIVVIGAGVAGLTTALQLLRKGHEVTIVSEFTPGDLSIGYTSPWAGANWLTFYDGGKLADYDAVSYPILRELARSSPEAGIRLISQRSHVLKRDLPKLEVAMSAICQRNPWFKNTVDSFEIIEDRSRIVHDDVAYLVEFRSVCIHTGVYLNWLMSQCLSLGATVVKRRVNHIKDANLLHSSGSRPDVIVNCSGLFARFLGGVEDKKMYPIRGQVVLVRNSLPFMASFSSTPEKENEDEALYIMTRFDGTSIIGGCFQPNNWSSEPDPSLTHRILARALDRFPELTKDGPLDIVRECVGHRPGREGGPRVELEKIPGVGFVVHNYGAAGAGYQSSYGMADEAVSYVERALTRPNL", "kcat [s⁻¹]": 12}
{"protein": "TvDAAO (Trigonopsis variabilis; S336A) (protein) MAKIVVIGAGVAGLTTALQLLRKGHEVTIVSEFTPGDLSIGYTSPWAGANWLTFYDGGKLADYDAVSYPILRELARSSPEAGIRLISQRSHVLKRDLPKLEVAMSAICQRNPWFKNTVDSFEIIEDRSRIVHDDVAYLVEFRSVCIHTGVYLNWLMSQCLSLGATVVKRRVNHIKDANLLHSSGSRPDVIVNCSGLFARFLGGVEDKKMYPIRGQVVLVRNSLPFMASFSSTPEKENEDEALYIMTRFDGTSIIGGCFQPNNWSSEPDPSLTHRILSRALDRFPELTKDGPLDIVRECVGHRPGREGGPRVELEKIPGVGFVVHNYGAAGAGYQSAYGMADEAVSYVERALTRPNL", "kcat [s⁻¹]": 5}
{"protein": "TvDAAO (Trigonopsis variabilis; S105A) (protein) MAKIVVIGAGVAGLTTALQLLRKGHEVTIVSEFTPGDLSIGYTSPWAGANWLTFYDGGKLADYDAVSYPILRELARSSPEAGIRLISQRSHVLKRDLPKLEVAMAAICQRNPWFKNTVDSFEIIEDRSRIVHDDVAYLVEFRSVCIHTGVYLNWLMSQCLSLGATVVKRRVNHIKDANLLHSSGSRPDVIVNCSGLFARFLGGVEDKKMYPIRGQVVLVRNSLPFMASFSSTPEKENEDEALYIMTRFDGTSIIGGCFQPNNWSSEPDPSLTHRILSRALDRFPELTKDGPLDIVRECVGHRPGREGGPRVELEKIPGVGFVVHNYGAAGAGYQSSYGMADEAVSYVERALTRPNL", "kcat [s⁻¹]": 30.4}
